The reported measurements were obtained from patent US10144706B2.

Target: PD-1/PD-L1 interaction (PD-1-Ig / PD-L1-His) (Homo sapiens)
Construct: hPDL1(18-239)-TVMV-His; TVMV protease site linker (C); made in house; host or cells: HEK293T
Assay: PD-1/PD-L1 Homogenous Time-Resolved Fluorescence (HTRF) binding assay
Details: IC50 range class; PD-L1-His 10 nM, PD-1-Ig 20 nM; read-out: Range or IC50
pIC50: −log10 of the molar value.
Measured metric: pIC50

stdin: Given the compound N#Cc1cncc(COc2cc(OCc3cccc(-c4cccc(COc5cc(OCc6cncc(C#N)c6)c(C(=O)NC6CC6)cc5Cl)c4Cl)c3Cl)c(Cl)cc2C(=O)O)c1 [Example 90020] , what is its reported pIC50?
stdout: 7.05 to 7.70

stdin: I'd like to know its pIC50. The compound in question is Cc1c(OCCCN2CC[C@@H](O)C2)cccc1-c1cccc(OCCCN2C[C@H](O)C[C@H]2C(=O)O)c1C [Example 2039]
stdout: 5.00 to 6.00

stdin: # query: pIC50 of entry Cc1c(COc2cc(OCc3cncc(C#N)c3)c(CO)cc2Cl)cccc1-c1cccc(COc2cc(OCc3cncc(C#N)c3)c(CN3CC[C@@H](O)C3)cc2Cl)c1C [Example 2126]
stdout: 7.05 to 7.70

stdin: For the compound shown here, CCN(CC)C(=O)C1CCCN(CCCOc2cccc(-c3cccc(OCCCN4CC[C@@H](O)C4)c3C)c2C)C1 (mixture of isomers) [Example 2023] , give the reported pIC50.
stdout: 7.05 to 7.70

stdin: Field request: pIC50 | item: Cc1c(COc2cc(OCc3ccc(-n4cccn4)nc3)c(CN[C@H](C(=O)O)[C@@H](C)O)cc2Cl)cccc1-c1cccc(COc2cc(OCc3ccc(-n4cccn4)nc3)c(CN[C@H](C(=O)O)[C@@H](C)O)cc2Cl)c1C [Example 5018]
stdout: 7.70 to 10.40

stdin: # pIC50 lookup, item Cc1c(COc2cc(OCc3cncc(C#N)c3)c(CN3CCC[C@@H]3C(N)=O)cc2Cl)cccc1-c1cccc(COc2cc(OCc3cncc(C#N)c3)c(CN3CCC[C@@H]3C(N)=O)cc2Cl)c1C [Example 40690]
stdout: 6.00 to 7.05

stdin: Which pIC50 is reported for this compound? Cc1c(OCCCNCC(C)(C)CO)cccc1-c1cccc(OCCCN2CC[C@@H](O)C2)c1C [Example 2046]
stdout: 7.05 to 7.70

stdin: // returns reported pIC50 for input Cc1c(COc2cc(OCc3cc(F)cc(F)c3)c(CN3CCCC[C@H]3C(=O)O)cc2Cl)cccc1-c1cccc(COc2cc(OCc3cc(F)cc(F)c3)c(CN3CCCC[C@H]3C(=O)O)cc2Cl)c1C [Example 5006]
stdout: 7.70 to 10.40

stdin: pIC50 for Cc1c(COc2cc(OCc3cncc(C#N)c3)c(CN[C@H](C(=O)O)c3ccccc3)cc2Cl)cccc1-c1cccc(COc2cc(OCc3cncc(C#N)c3)c(CN[C@H](C(=O)O)c3ccccc3)cc2Cl)c1C [Example 40360] ?
stdout: 7.70 to 10.40

stdin: Request the reported pIC50 associated with Cc1cc(OCc2cccc(-c3cccc(COc4cc(C)c(CN5CCCC[C@H]5C(=O)O)cc4Cl)c3C)c2C)c(Cl)cc1CN1CCCC[C@H]1C(=O)O [Example 5501]
stdout: 7.70 to 10.40

stdin: Entry under review: N#Cc1cncc(COc2cc(OCc3cccc(-c4cccc(COc5cc(OCc6cncc(C#N)c6)c(C(=O)NCCCO)cc5Cl)c4Cl)c3Cl)c(Cl)cc2C(=O)O)c1 [Example 90030] . Reported pIC50?
stdout: 7.05 to 7.70

====

Biological target: PD-1/PD-L1 interaction (PD-1-Ig / PD-L1-His) (Homo sapiens, UniProt Q9NZQ7)
Construct: hPDL1(18-239)-TVMV-His; TVMV protease site linker (C); made in house; host or cells: HEK293T
Sequence (Q9NZQ7 with tags, fused parts or gaps): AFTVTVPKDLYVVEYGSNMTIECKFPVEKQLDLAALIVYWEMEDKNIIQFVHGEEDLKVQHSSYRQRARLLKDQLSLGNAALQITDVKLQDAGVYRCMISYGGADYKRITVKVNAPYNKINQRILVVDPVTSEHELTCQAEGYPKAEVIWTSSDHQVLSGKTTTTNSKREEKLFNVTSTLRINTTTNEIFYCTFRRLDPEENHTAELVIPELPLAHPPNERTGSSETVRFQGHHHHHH
Assay: PD-1/PD-L1 Homogenous Time-Resolved Fluorescence (HTRF) binding assay
Settings: numeric IC50; PD-L1-His 10 nM, PD-1-Ig 20 nM; read-out: Range or IC50
pIC50: −log10 of the molar value.
Cut-off 7 on pIC50, inclusive. At or above means Met; below means Not met.

stdin: I'd appreciate it if you could say whether Cc1c(COc2cc(OCc3cncc(C#N)c3)c(CN[C@@H](CCO)C(=O)O)cc2Cl)cccc1-c1cccc(COc2cc(OCc3cncc(C#N)c3)c(CN[C@H](CCO)C(=O)O)cc2Cl)c1C [Example 40770] has pIC50 at least equal to 7.
stdout: Met

stdin: Decide: pIC50 of Cc1c(COc2cc(OCc3cncc(C#N)c3)c(Cl)cc2Cl)cccc1-c1cccc(COc2cc(OCc3cncc(C#N)c3)c(CN[C@@H](C(=O)O)[C@H](C)O)cc2Cl)c1C [Example 70040] >= 7?
stdout: Not met

stdin: Does the compound Cc1c(OCCCN(Cc2ccccn2)Cc2ccccn2)cccc1-c1cccc(OCCCN2CC[C@@H](O)C2)c1C [Example 2056] have recorded pIC50 that is 7 or more?
stdout: Not met

====

Target: PD-1/PD-L1 interaction (PD-1-Ig / PD-L1-His) (Homo sapiens, UniProt Q9NZQ7)
Construct: hPDL1(18-239)-TVMV-His; TVMV protease site linker (C); made in house; host or cells: HEK293T
Test: PD-1/PD-L1 Homogenous Time-Resolved Fluorescence (HTRF) binding assay
Conditions: IC50 range class; PD-L1-His 10 nM, PD-1-Ig 20 nM; read-out: Range or IC50
Measured metric: IC50

stdin: For the compound COC(=O)[C@@H]1CCCCN1Cc1cc(Cl)c(OCc2cccc(-c3cccc(COc4cc(OCc5cncc(C#N)c5)c(CN5CCCC[C@H]5C(=O)OC)cc4Cl)c3C)c2C)cc1OCc1cncc(C#N)c1 [Example 40300] , what IC50 is on record?
stdout: 90.1 to 1000 nM

stdin: Could you share which IC50 value was measured for Cc1c(COc2cc(OCc3cncc(C#N)c3)c(CO)cc2Cl)cccc1-c1cccc(COc2cc(OCc3cncc(C#N)c3)c(CNCC(O)CC(=O)O)cc2Cl)c1C (centres unmarked) [Example 50070] ?
stdout: 0.04 to 20 nM

stdin: State the recorded IC50 for this entry: Cc1c(COc2cc(OCc3cncc(C#N)c3)c(CO)cc2Cl)cccc1-c1cccc(COc2cc(OCc3cncc(C#N)c3)c(CNCC(O)C(=O)O)cc2Cl)c1C (centres unmarked) [Example 50300]
stdout: 0.04 to 20 nM

stdin: For the compound shown here, Cc1c(COc2cc(OCc3cncc(C#N)c3)c(CN3CC(C(=O)O)C3)cc2Cl)cccc1-c1cccc(COc2cc(OCc3cncc(C#N)c3)c(CN3CC(C(=O)O)C3)cc2Cl)c1C [Example 40420] , give the reported IC50.
stdout: 0.04 to 20 nM

stdin: Form field: reported IC50 of Cc1cc(CN2CCCC[C@H]2C(=O)O)ccc1OCc1cccc(-c2cccc(COc3ccc(CN4CCCC[C@H]4C(=O)O)cc3C)c2C)c1C [Example 5500]
stdout: 90.1 to 1000 nM

====

Biological target: PD-1/PD-L1 interaction (PD-1-Ig / PD-L1-His) (Homo sapiens, UniProt Q9NZQ7)
Construct: hPDL1(18-239)-TVMV-His; TVMV protease site linker (C); made in house; host or cells: HEK293T
Assay: PD-1/PD-L1 Homogenous Time-Resolved Fluorescence (HTRF) binding assay
Details: IC50 range class; PD-L1-His 10 nM, PD-1-Ig 20 nM; read-out: Range or IC50
Source text: The ability of the compounds of formula (I) to bind to PD-L1 was investigated using a PD-1/PD-L1 Homogenous Time-Resolved Fluorescence (HTRF) binding assay. Homogenous Time-Resolved Fluorescence (HTRF) Binding Assay. The interaction of PD-1 and PD-L1 can be assessed using soluble, purified preparations of the extracellular domains of the two proteins. […]
pIC50: −log10 of the molar value.
Kindly supply the reported pIC50 values for the records listed here.

stdin: Hello, I am looking for reported pIC50 with PD-1/PD-L1 interaction (PD-1-Ig / PD-L1-His) (Homo sapiens, UniProt Q9NZQ7) for Cc1c(COc2cc(OCc3cncc(C#N)c3)c(CN[C@](C)(CO)C(=O)O)cc2Cl)cccc1-c1cccc(COc2cc(OCc3cncc(C#N)c3)c(CN[C@](C)(CO)C(=O)O)cc2Cl)c1C [Example 41210] . Could you help?
stdout: 7.70 to 10.40

stdin: Lookup: pIC50 / PD-1/PD-L1 interaction (PD-1-Ig / PD-L1-His) (Homo sapiens, UniProt Q9NZQ7) / CO[C@H](C)[C@H](NCc1cc(Cl)c(OCc2cccc(-c3cccc(COc4cc(OCc5cncc(C#N)c5)c(CN[C@H](C(=O)O)[C@@H](C)OC)cc4Cl)c3C)c2C)cc1OCc1cncc(C#N)c1)C(=O)O
stdout: 7.70 to 10.40

stdin: Query the reported pIC50 for PD-1/PD-L1 interaction (PD-1-Ig / PD-L1-His) (Homo sapiens, UniProt Q9NZQ7); item: Cc1c(OCCCN[C@@H](c2ccccc2)[C@H](O)CO)cccc1-c1cccc(OCCCN2CC[C@@H](O)C2)c1C
stdout: 7.05 to 7.70

stdin: Identify the measured pIC50 of Cc1c(OCCCN2CC[C@@H](O)C2)cccc1-c1ccc(OCCCN2CC[C@H](O)C2)c(OCCCN2CC[C@H](O)C2)c1 for PD-1/PD-L1 interaction (PD-1-Ig / PD-L1-His) (Homo sapiens, UniProt Q9NZQ7).
stdout: < 5.00

stdin: Provide the documented pIC50 with PD-1/PD-L1 interaction (PD-1-Ig / PD-L1-His) (Homo sapiens, UniProt Q9NZQ7) as the system for N#Cc1cncc(COc2cc(OCc3cccc(-c4cccc(COc5cc(OCc6cncc(C#N)c6)c(C(=O)N6CCCC(O)C6)cc5Cl)c4Cl)c3Cl)c(Cl)cc2C(=O)N2CCCC(O)C2)c1 (stereo not drawn)
stdout: 7.05 to 7.70

stdin: Recall the recorded pIC50 for Cc1c(OCCCN(C)CCN(C)C)cccc1-c1cccc(OCCCN2CC[C@@H](O)C2)c1C with PD-1/PD-L1 interaction (PD-1-Ig / PD-L1-His) (Homo sapiens, UniProt Q9NZQ7) and state it.
stdout: 7.05 to 7.70

stdin: Identify the measured pIC50 of COc1cc(OCc2cccc(-c3cccc(COc4cc(OC)c(CNCc5cncnc5)cc4Cl)c3C)c2C)c(Cl)cc1CNCc1cncnc1 for PD-1/PD-L1 interaction (PD-1-Ig / PD-L1-His) (Homo sapiens, UniProt Q9NZQ7).
stdout: 7.70 to 10.40

stdin: For PD-1/PD-L1 interaction (PD-1-Ig / PD-L1-His) (Homo sapiens, UniProt Q9NZQ7), provide pIC50 of Cc1c(OCCCN2CC[C@@H](O)C2)cccc1-c1cccc(S(=O)(=O)NCCC(=O)O)c1C please.
stdout: 5.00 to 6.00

stdin: Notebook: pull reported pIC50 for PD-1/PD-L1 interaction (PD-1-Ig / PD-L1-His) (Homo sapiens, UniProt Q9NZQ7), entry Cc1c(OCCCN2CCCC(C(N)=O)C2)cccc1-c1cccc(OCCCN2CC[C@@H](O)C2)c1C (stereo partly drawn)
stdout: 7.70 to 10.40

stdin: Which measured pIC50 belongs to Cc1c(OCCCN2CC[C@@H](O)C2)cccc1-c1cccc(OCc2cccc(N)c2)c1C , tested on PD-1/PD-L1 interaction (PD-1-Ig / PD-L1-His) (Homo sapiens, UniProt Q9NZQ7)?
stdout: 5.00 to 6.00

stdin: What pIC50 appears in the records for this compound with PD-1/PD-L1 interaction (PD-1-Ig / PD-L1-His) (Homo sapiens, UniProt Q9NZQ7)? Cc1c(OCCCN(CCO)Cc2ccccc2)cccc1-c1cccc(OCCCN2CC[C@@H](O)C2)c1C
stdout: 6.00 to 7.05

stdin: Entry Cc1c(OCCCN2CC[C@@H](O)C2)cccc1-c1cccc(C(=O)NCCCN2CC[C@@H](O)C2)c1C , system PD-1/PD-L1 interaction (PD-1-Ig / PD-L1-His) (Homo sapiens, UniProt Q9NZQ7): what pIC50 was measured?
stdout: 5.00 to 6.00

stdin: GET /values?readout=pIC50&system=PD-1/PD-L1 interaction (PD-1-Ig / PD-L1-His) (Homo sapiens, UniProt Q9NZQ7)&item= Cc1c(OCCCNCC(C)(O)CO)cccc1-c1cccc(OCCCNCC(C)(O)CO)c1C (mixture of isomers)
stdout: 7.70 to 10.40

stdin: Please tell me: pIC50 of Cc1cc(OCc2cccc(-c3cccc(COc4cc(C)c(CNCCC(=O)O)cc4Cl)c3C)c2C)c(Cl)cc1CNCCC(=O)O , system PD-1/PD-L1 interaction (PD-1-Ig / PD-L1-His) (Homo sapiens, UniProt Q9NZQ7)?
stdout: 7.70 to 10.40

stdin: What value of pIC50 on PD-1/PD-L1 interaction (PD-1-Ig / PD-L1-His) (Homo sapiens, UniProt Q9NZQ7) does Cc1c(OCCCCN2CC[C@@H](O)C2)cccc1-c1cccc(OCCCN2CC[C@@H](O)C2)c1C have?
stdout: 7.70 to 10.40
